Listed below: inhibition at 10 min, 10 µM values for each entry.
- MEASUREMENT TARGET: CYP2D6 (Homo sapiens, UniProt P10635)
- Construct: tissue BD-Gentest 452117; host or cells: human liver microsomes
- Sequence (P10635 whole entry): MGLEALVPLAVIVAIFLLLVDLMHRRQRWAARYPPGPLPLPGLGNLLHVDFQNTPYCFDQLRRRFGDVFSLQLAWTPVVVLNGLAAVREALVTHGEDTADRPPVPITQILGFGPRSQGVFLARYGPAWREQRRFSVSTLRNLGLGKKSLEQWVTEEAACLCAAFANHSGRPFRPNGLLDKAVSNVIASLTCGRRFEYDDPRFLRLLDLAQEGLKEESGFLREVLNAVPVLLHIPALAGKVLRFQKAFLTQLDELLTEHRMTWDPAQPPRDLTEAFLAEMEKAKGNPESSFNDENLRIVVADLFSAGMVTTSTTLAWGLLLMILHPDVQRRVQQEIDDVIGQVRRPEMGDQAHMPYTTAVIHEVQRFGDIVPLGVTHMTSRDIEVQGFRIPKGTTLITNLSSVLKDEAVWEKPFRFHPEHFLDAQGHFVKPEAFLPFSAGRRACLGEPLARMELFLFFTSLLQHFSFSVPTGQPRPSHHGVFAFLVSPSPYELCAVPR
- ASSAY EXPLANATION: CYP inhibition assay in human liver microsome
- Type: in vitro ADME
- TEST SETTINGS: human liver microsomes, probe dextromethorphan, 10µM test compound, dextromethorphan substrate, <0: not or weak inhibitor, read-out: CYP 2D6 inhibition %@10µM

Past entries and their recorded results:
C[C@@H]1CN(c2ccc(C#N)c3ncccc23)C[C@H](CN2CCN(c3ccc4c(c3)CNC4)CC2)O1    15%
C[C@@H]1CN(c2ccc(C#N)c3nccnc23)C[C@H](CN2CCN(c3cc4c(cn3)CCN[C@H]4C)CC2)O1 (single isomer, unassigned)    9.5%

Query: What inhibition at 10 min, 10 µM value was documented for this compound, C[C@@H]1CN(c2ccc(C#N)c3ncccc23)C[C@H](CN2CCN(c3ccc4c(c3)C(O)CNC4)CC2)O1 (stereo partly drawn) ?
Response: 6%

Query: Can you handle C[C@@H]1CN(c2ccc(C#N)c3ncsc23)C[C@H](CN2CCN(c3cnc4c(c3)CNC4)CC2)O1 next?
Response: 13%

Query: Can you handle C[C@@H]1CN(c2ccc(C#N)c3ncccc23)C[C@H](CN2CCN(c3cc4c(cn3)CNCC4)CC2)O1 next?
Response: 7.5%

Query: Can you handle C[C@@H]1CN(c2ccc(C#N)c3nccnc23)C[C@H](CN2CCN(c3cc4c(cn3)CN[C@@H](C)C4)CC2)O1 (single isomer, unassigned) next?
Response: -1.5%
